The measured values listed here are drawn from the supplement of paper PMC10065799.

- study target: Fyn (UniProt P06241)
- Sequence (P06241 whole entry, looked up): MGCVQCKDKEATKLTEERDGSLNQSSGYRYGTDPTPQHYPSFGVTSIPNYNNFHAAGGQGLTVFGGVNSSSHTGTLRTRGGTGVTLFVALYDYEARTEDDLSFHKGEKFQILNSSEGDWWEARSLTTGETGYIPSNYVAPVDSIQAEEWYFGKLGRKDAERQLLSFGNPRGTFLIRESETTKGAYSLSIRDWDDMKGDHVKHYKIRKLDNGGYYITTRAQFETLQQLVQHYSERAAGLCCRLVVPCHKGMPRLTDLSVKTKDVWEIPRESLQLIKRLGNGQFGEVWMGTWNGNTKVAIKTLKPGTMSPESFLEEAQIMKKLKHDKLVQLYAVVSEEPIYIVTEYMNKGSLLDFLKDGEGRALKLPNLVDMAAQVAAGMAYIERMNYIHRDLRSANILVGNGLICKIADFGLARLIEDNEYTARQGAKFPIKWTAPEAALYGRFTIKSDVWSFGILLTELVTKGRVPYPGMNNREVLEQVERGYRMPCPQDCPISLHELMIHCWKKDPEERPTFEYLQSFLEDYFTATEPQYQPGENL
- assay comment: phosphorylation enrichment, bacterial display (enrichment ratio); higher = better substrate or ligand; peptides without Tyr show the background;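 note: 11-residue human phosphosite peptides and single-mutation variants displayed on the E. coli surface, counted by deep sequencing, each peptide's frequency after selection divided by its frequency in the unselected input library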;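 note: frequency after pTyr selection over input frequency; kinase dosed for 20-30% of maximal phosphorylation in three min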
Would you kindly list phosphorylation enrichment for each of these sequences?
Give a plain numeric answer without units written out.

Recorded phosphorylation enrichment of GGTPLYMDRQG [AGXT_Y194] , please.
0.516

Fill in the blank: the reported phosphorylation enrichment of IFGEEYEEQPR [ZMYM2_Y1033_V1028I] is ____.
0.535

Return reported phosphorylation enrichment; argument: SFGENYDNSKS [MAN1B1_Y60]
0.438

Entry under review: LAARYYNWVCF [FLT4_Y1231_S1235C] . Reported phosphorylation enrichment?
0.777

Which measured phosphorylation enrichment value corresponds to SILTVYSKDNY [PANK2_Y400_A398T] ?
0.442

Could you share which phosphorylation enrichment value was measured for AKQVGYENAGT [PC_Y304] ?
0.439

Which phosphorylation enrichment value is on record for HDRNTYEKYLG [TF_Y666] ?
1.41

Requested field: phosphorylation enrichment. Item: RLNWIYFKDQT [RS1_Y165_YF]
0.757

Return reported phosphorylation enrichment; argument: CTTIHYNSMCN [TP53_Y234_Y236S]
0.464

Given the entry DHKRQYELLKL [KIF4B_Y684_R680H] , report its measured phosphorylation enrichment.
0.395

So what does the record say about phosphorylation enrichment for ILGLEYSLRLP [HELZ2_Y1304_V1308L] ?
0.628

Consider the sequence TVEDHDYEGGI [TKT_Y563_Y563D] and give its measured phosphorylation enrichment.
0.478

# query: phosphorylation enrichment of entry GHMYAYDWISI [BEST1_Y227_L224M]
1.89

Given the sequence QKNVSYVSRVS [TASOR_Y1043_T1046R] , what is its reported phosphorylation enrichment?
0.438

I'd like to know its phosphorylation enrichment. The sequence in question is WPLKWYAPECI [ZAP70_Y506]
0.565

If you can, please state the reported phosphorylation enrichment value of PDSVDYRKKGF [CTSK_Y121_YF] .
0.32

Data request, read-out phosphorylation enrichment, for PRLMLYNPTTY [EGFR_Y270_P266R]
0.601

Value lookup for phosphorylation enrichment; key = NQDRTYFESVR [SPEN_Y632_YF]
0.571

Using the record for SVTCTDSPALN [TP53_Y126_Y126D] , report its phosphorylation enrichment.
0.447

Look up phosphorylation enrichment for this sequence: EQFELHCEMGS [CBL_Y371_Y371H_YF]
0.523

Would you kindly share the measured phosphorylation enrichment for SCPANYFAFKI [FAM3D_Y65_P60S] ?
0.901

Any idea what its phosphorylation enrichment is? The sequence is AEQDCYHGAIP [FER_Y461_W460C]
0.472

# phosphorylation enrichment lookup, item QLAPQYTYTQG [FLNA_Y1761_A1764T]
0.422

I am curious: what phosphorylation enrichment value has been reported for EEQKRYYNAMK [SCN5A_Y1494_K1493R] ?
0.471

Tell me the measured phosphorylation enrichment of ALVDTYCRHNY [HLA-DRB1_Y107_A103L] , please.
0.46

Which phosphorylation enrichment is listed for DVRQEYSGMIL [PLXND1_Y616_P617S] ?
0.434

Query: phosphorylation enrichment; subject: NTQRPHFKGGG [TYROBP_Y111_Y111H_YF]
0.286

Requested field: phosphorylation enrichment. Item: HNVPICEGFAL [ACTC1_Y168_Y168C_YF]
0.75

* * *

- study target: Jak2 (UniProt O60674)
- Sequence (O60674 whole entry, looked up): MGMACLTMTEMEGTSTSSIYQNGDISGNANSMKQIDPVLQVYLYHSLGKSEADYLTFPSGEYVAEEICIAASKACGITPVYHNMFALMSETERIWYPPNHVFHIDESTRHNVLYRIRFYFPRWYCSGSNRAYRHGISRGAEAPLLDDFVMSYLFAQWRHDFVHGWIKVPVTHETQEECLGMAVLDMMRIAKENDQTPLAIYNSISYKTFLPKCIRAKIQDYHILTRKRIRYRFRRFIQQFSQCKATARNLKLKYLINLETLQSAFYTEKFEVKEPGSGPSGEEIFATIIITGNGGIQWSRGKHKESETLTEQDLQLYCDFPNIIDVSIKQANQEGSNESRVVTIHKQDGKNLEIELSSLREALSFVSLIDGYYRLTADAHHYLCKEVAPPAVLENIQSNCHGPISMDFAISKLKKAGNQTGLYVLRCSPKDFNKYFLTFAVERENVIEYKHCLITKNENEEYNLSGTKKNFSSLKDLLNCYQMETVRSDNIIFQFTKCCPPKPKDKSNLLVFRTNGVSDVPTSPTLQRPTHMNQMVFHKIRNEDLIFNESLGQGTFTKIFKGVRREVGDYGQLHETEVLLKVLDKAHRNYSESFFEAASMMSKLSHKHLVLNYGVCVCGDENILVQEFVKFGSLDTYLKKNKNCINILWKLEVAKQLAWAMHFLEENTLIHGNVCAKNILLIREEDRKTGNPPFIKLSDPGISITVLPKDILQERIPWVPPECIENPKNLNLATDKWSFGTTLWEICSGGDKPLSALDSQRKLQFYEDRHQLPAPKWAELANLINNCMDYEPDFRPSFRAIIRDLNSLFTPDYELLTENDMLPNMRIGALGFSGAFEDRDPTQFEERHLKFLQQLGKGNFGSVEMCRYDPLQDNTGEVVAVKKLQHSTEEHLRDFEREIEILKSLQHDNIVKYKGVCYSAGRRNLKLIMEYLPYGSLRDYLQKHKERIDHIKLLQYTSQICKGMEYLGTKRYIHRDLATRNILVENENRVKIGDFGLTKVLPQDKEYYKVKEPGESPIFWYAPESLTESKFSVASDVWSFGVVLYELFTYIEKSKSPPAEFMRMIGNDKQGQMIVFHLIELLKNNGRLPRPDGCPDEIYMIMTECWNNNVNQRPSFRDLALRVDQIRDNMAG
- assay comment: phosphorylation enrichment, bacterial display (enrichment ratio); higher = better substrate or ligand; peptides without Tyr show the background
Where phosphorylation enrichment equals or exceeds 0.6, the correct label is Condition met; where it does not, the label is Condition not met.

// inclusive: phosphorylation enrichment at least 0.6? input: AKQVGYENAGT [PC_Y304]
Condition not met

Hello, I need to know if KPSLKYVTYGN [GALNTL5_Y404_G401S] has measured phosphorylation enrichment not below 0.6. Thanks!
Condition not met

Tell me whether phosphorylation enrichment is at least 0.6 here: EEGESHVCSSD [DCX_Y125_Y125H]
Condition met

Is reported phosphorylation enrichment greater than or equal to 0.6 here: EEGNPYFSSTR [MCCC2_Y520_A524T_YF]
Condition met

Check this sequence for phosphorylation enrichment at or above 0.6: FSTSPYLLEAA [BRIP1_Y921_YF]
Condition met

Quick check: does RISRKYKKVRF [F8_Y442_G439S] have phosphorylation enrichment greater than or equal to 0.6?
Condition met

// inclusive: phosphorylation enrichment at least 0.6? input: RISGVYKLPPD [ANGPTL7_Y145]
Condition met

Hi, just wondering whether CTTIHYNYMCT [TP53_Y234_N239T] shows phosphorylation enrichment of 0.6 or higher.
Condition met

Would you say HESEIYGKVCY [CSRP3_Y57_C58G] shows phosphorylation enrichment at minimum 0.6?
Condition met

Is it the case that TLGPFYPSLLF [CRYAA_Y18_R21L] has phosphorylation enrichment reaching or exceeding 0.6?
Condition met

Quick check: does CTLNVYRQLHN [LUZP1_Y1036_S1034N] have phosphorylation enrichment greater than or equal to 0.6?
Condition met

Tell me whether phosphorylation enrichment is at least 0.6 here: RRESQYQENRG [LRCH3_Y354]
Condition not met

Check the entry LASSEYPVQRR [GALK1_Y236_R239Q] : does phosphorylation enrichment equal or exceed 0.6?
Condition met

hey, is phosphorylation enrichment for this one >= 0.6? TSPKSYPSQKH [CAP2_Y316]
Condition not met

Check if phosphorylation enrichment >= 0.6 (inclusive). Item: EQKRFYNAMKK [SCN5A_Y1495_K1493R_YF]
Condition not met

Exam item: decide whether the reported phosphorylation enrichment for IEEGTYGVAYR [CDK11B_Y449_V452A] is at least 0.6.
Condition met

Decide: is the reported value of phosphorylation enrichment for SNKLYYQLEQE [PDPR_Y110] equal to or greater than 0.6?
Condition met

Hi, just wondering whether VLRQVYVDFEG [KMT2B_Y1707_R1705Q] shows phosphorylation enrichment of 0.6 or higher.
Condition met

Exam item: decide whether the reported phosphorylation enrichment for DPNQQYYIAMD [TBX15_Y159_H156N] is at least 0.6.
Condition met

Form field: phosphorylation enrichment at least 0.6? Entry: SRVTQYERDFE [SNX1_Y463]
Condition met

Is it the case that CDIARYIVSQL [MAST2_Y461_P459A] has phosphorylation enrichment reaching or exceeding 0.6?
Condition met

In plain terms: is recorded phosphorylation enrichment at least 0.6 for GNKENYGLPQP [BUB1_Y538] ?
Condition not met

Exam item: decide whether the reported phosphorylation enrichment for NQDRTYYERVR [SPEN_Y632_S635R] is at least 0.6.
Condition not met

Is reported phosphorylation enrichment greater than or equal to 0.6 here: VCRHNYGVVES [HLA-DRB1_Y112_Y107V]
Condition met

Does the sequence VGTKRYRAPEV [ACVRL1_Y375_M376R] have recorded phosphorylation enrichment that is 0.6 or more?
Condition not met

Test whether the sequence RTCSSYTIEKI [PARP15_Y520_A521T] records phosphorylation enrichment of 0.6 or higher.
Condition met

* * *

- Test system: AncSZ
- assay comment: phosphorylation enrichment, bacterial display (enrichment ratio); higher = better substrate or ligand; peptides without Tyr show the background
property label: phosphorylation enrichment
Answer with a number only.

Quick check: phosphorylation enrichment of FLRTGYSIPFG [TGM1_Y370_V372I_YF] ?
0.844

Would you kindly share the measured phosphorylation enrichment for LEQDEYALRSH [HADHB_Y244] ?
1.98

I am curious: what phosphorylation enrichment value has been reported for NNHGNYIVLLG [ETFDH_Y172_R175L] ?
0.979

Quick check: phosphorylation enrichment of ARVDTYCRHNF [HLA-DRB1_Y107_A103R_YF] ?
0.7

For RALLNYIASKY [GSTA3_Y74_I71L] , what is its reported phosphorylation enrichment?
0.611

What does the record list as phosphorylation enrichment for CSEETYRLMLQ [RET_Y981_M980T] ?
1.28

Name the reported phosphorylation enrichment value associated with the sequence WCKPLYFSCAV [MMS22L_Y28_P27L]
1.26

Which phosphorylation enrichment is reported for this sequence? TNYCLYLRSLE [MTM1_Y71_R69C]
1.67

Using the record for NNIDYYKKTTN [FGFR2_Y657] , report its phosphorylation enrichment.
0.616

Can you look up the measured phosphorylation enrichment of GDKKAYVRLAP [RPL23A_Y137_E133D] for me?
0.603

Given SVTFTYSPALN [TP53_Y126_C124Y_YF] , state its recorded phosphorylation enrichment.
1.08

Give its phosphorylation enrichment value. Item: FLTSSYINIST [IL23R_Y178_YF]
0.834

Entry LAARYYNWVCF [FLT4_Y1231_S1235C] has what phosphorylation enrichment?
1.37

Item under review: PSSRDYKHNIK [PIGN_Y227] . Reported phosphorylation enrichment?
0.442

// phosphorylation enrichment lookup, key: CTIIHYNYMCN [TP53_Y234_T231I]
0.963

Data request, read-out phosphorylation enrichment, for IRSGIYFKPES [L2HGDH_Y102_H98R_YF]
0.913

# query: phosphorylation enrichment of entry IGEGTYGVVFK [CDK2_Y15_YF]
0.826

Return reported phosphorylation enrichment; argument: ETESPYQELQG [TYROBP_Y91]
1.24

Could you share which phosphorylation enrichment value was measured for HRGCLYLAIEY [TEK_Y899_Y897C] ?
1.86

// query phosphorylation enrichment value for entry GVFSRYFTTFD [CLCA1_Y661_YF]
0.954

Report phosphorylation enrichment for KILTHYKQPHT [KMT2D_Y5349_R5351Q] please.
0.763

What phosphorylation enrichment value was documented for this sequence, GRPMDYHVSIT [OTOF_Y254_Q255H] ?
0.732

Which phosphorylation enrichment is listed for ETDSEYVKLSK [C7orf57_Y70_A74S] ?
1.01

Fill in the blank: the reported phosphorylation enrichment of KTTILHKLKLG [ARF1_Y35_Y35H] is ____.
0.584

Return reported phosphorylation enrichment; argument: NLMPAYFKCIQ [CYP21A2_Y190_YF]
1.4

Reported phosphorylation enrichment, sequence SPPILYSFYLD [FCRL6_Y239] : ____
1.31

# get_value(readout='phosphorylation enrichment', item= DHKRQYELLKL [KIF4B_Y684_R680H] )
0.472

Data request, read-out phosphorylation enrichment, for PHQTIYSALMI [FGF23_Y70]
1.26

Given VEDQFYCVDCF [FHL1_Y208_YF] , state its recorded phosphorylation enrichment.
1.61
